# Measurement Notes: Prodrug bioconversion in intestinal S9 cell fractions
# Type: in vitro ADME
# Condition: Rat; 0.25 mg/mL; Experiment 3
Reported Clint (prodrug disappearance) values for the following compounds.
Measurement Type: Clint (prodrug disappearance)

> print(dat)
                                smiles.code               measurement.type                  reported.measurement
1  CN(C[C@H](Cc1ccccc1)OP(=O)(O)O)C(=O)c1cncc(C#Cc2cnn(C)n2)c1  Clint (prodrug disappearance)  28.2 μL/min/mg intestinal S9 protein
2  CN(C[C@H](Cc1ccccc1)OP(=O)(O)O)C(=O)c1cncc(C#Cc2cnn(C(F)F)c2)c1  Clint (prodrug disappearance)  50.6 μL/min/mg intestinal S9 protein
3  CN(C[C@H](Cc1ccccc1)OC(=O)CN)C(=O)c1cncc(C#Cc2cnn(C(F)F)c2)c1  Clint (prodrug disappearance)   750 μL/min/mg intestinal S9 protein
4  CN(C[C@H](Cc1ccccc1)OC(=O)CN)C(=O)c1cncc(C#Cc2cnn(C)n2)c1  Clint (prodrug disappearance)   299 μL/min/mg intestinal S9 protein

###

# Measurement Notes: Prodrug bioconversion in intestinal S9 cell fractions
# Type: in vitro ADME
# Condition: Mouse; 0.25 mg/mL; Experiment 3
Marks after values point to notes of the source that are not given here.
Measurement Type: Clint (prodrug disappearance)

> print(dat)
                                   compound                   reported.measurement
1  CN(C[C@H](Cc1ccccc1)OP(=O)(O)O)C(=O)c1cncc(C#Cc2cnn(C)n2)c1 [Example 23]   31.3 μL/min/mg intestinal S9 protein
2  CN(C[C@H](Cc1ccccc1)OP(=O)(O)O)C(=O)c1cncc(C#Cc2cnn(C(F)F)c2)c1 [Example 19]   42.2 μL/min/mg intestinal S9 protein
3  CN(C[C@H](Cc1ccccc1)OC(=O)CN)C(=O)c1cncc(C#Cc2cnn(C(F)F)c2)c1 [Example 21]  >480* μL/min/mg intestinal S9 protein
4  CN(C[C@H](Cc1ccccc1)OC(=O)CN)C(=O)c1cncc(C#Cc2cnn(C)n2)c1 [Example 25]  >480* μL/min/mg intestinal S9 protein

###

# Measurement Notes: Prodrug bioconversion in intestinal S9 cell fractions
# Type: in vitro ADME
# Condition: Monkey; 0.25 mg/mL; Mean of 3 experiments
Measurement Type: Clint (prodrug disappearance)

> print(dat)
                                smiles.code               measurement.type                  reported.measurement
1  CN(C[C@H](Cc1ccccc1)OC(=O)CN)C(=O)c1cncc(C#Cc2cnn(C(F)F)c2)c1  Clint (prodrug disappearance)  90.5 μL/min/mg intestinal S9 protein
2  CN(C[C@H](Cc1ccccc1)OP(=O)(O)O)C(=O)c1cncc(C#Cc2cnn(C)n2)c1  Clint (prodrug disappearance)  50.4 μL/min/mg intestinal S9 protein
3  CN(C[C@H](Cc1ccccc1)OC(=O)CN)C(=O)c1cncc(C#Cc2cnn(C)n2)c1  Clint (prodrug disappearance)  42.6 μL/min/mg intestinal S9 protein
4  CN(C[C@H](Cc1ccccc1)OP(=O)(O)O)C(=O)c1cncc(C#Cc2cnn(C(F)F)c2)c1  Clint (prodrug disappearance)  69.5 μL/min/mg intestinal S9 protein

###

# Measurement Notes: Prodrug bioconversion in intestinal S9 cell fractions
# Format: in vitro ADME
# Condition: Rat; 0.25 mg/mL; Experiment 1
Entries and their measured Clint (prodrug disappearance) follow.
Measurement Type: Clint (prodrug disappearance)

> print(dat)
                                smiles.code               measurement.type                  reported.measurement
1  CN(C[C@H](Cc1ccccc1)OP(=O)(O)O)C(=O)c1cncc(C#Cc2cnn(C)n2)c1  Clint (prodrug disappearance)  29.1 μL/min/mg intestinal S9 protein
2  CN(C[C@H](Cc1ccccc1)OP(=O)(O)O)C(=O)c1cncc(C#Cc2cnn(C(F)F)c2)c1  Clint (prodrug disappearance)  25.6 μL/min/mg intestinal S9 protein
3  CN(C[C@H](Cc1ccccc1)OC(=O)CN)C(=O)c1cncc(C#Cc2cnn(C(F)F)c2)c1  Clint (prodrug disappearance)   396 μL/min/mg intestinal S9 protein
4  CN(C[C@H](Cc1ccccc1)OC(=O)CN)C(=O)c1cncc(C#Cc2cnn(C)n2)c1  Clint (prodrug disappearance)   217 μL/min/mg intestinal S9 protein
